Please respond with reported viability at 6 days, 0.12 µM for every item in the list.
assay: in vitro; conditions: human
Structures can show the parent of a compound that is named as a salt.
Numbers only, in %.

>>> print(df.to_string())
                                   compound  unit_spec  value_measured
0  COc1ncccc1-c1cnn2ccc(N3CCN(C(=O)OC4(C)COC4)CC3)nc12          %            91.4

Shift focus to the following entry.
Dear colleague, I am looking for the recorded viability at 6 days, 0.12 µM of the following compound: CCN(CC)CCNC(=O)c1c(C)[nH]c(/C=C2\C(=O)Nc3ccc(F)cc32)c1C [Sunitinib maleate, sunitinib malate]
99.1
